- ASSAYED_SYSTEM: Androgen Receptor (Homo sapiens)
- Construct: endogenous in cells; host or cells: VCaP cells
- TEST_DETAILS: Androgen Receptor ELISA assay (PathScan AR ELISA) in VCaP cells: AR degradation, Dmax and DC50
- Assay type: cell-based
- RECORDED_CONDITIONS: VCaP, read-out: VCaP Dmax (%)
Parameter Dmax: see the listing below.

Known results for compounds:
# COMPOUND, Dmax
rows = [
    ("Cc1ncsc1-c1ccc([C@H](C)NC(=O)[C@@H]2C[C@@H](O)CN2C(=O)[C@@H](NC(=O)CN2CCN(CCC3CCN(c4ccc(C(=O)N[C@H]5C(C)(C)[C@H](Oc6ccc(C#N)c(Cl)c6)C5(C)C)cn4)C3)CC2)C(C)(C)C)cc1 (stereo partly shown)", "> 71%"),
    ("CC(C)(C)[C@H](NC(=O)COCCCOCCCCOc1ccc(N2C(=S)N(c3ccc(C#N)c(Cl)c3)C(=O)C2(C)C)c(F)c1)C(=O)N1C[C@H](O)C[C@H]1C(=O)NCc1ccc(-c2cnco2)cc1", "> 71%"),
]

# input Name the recorded Dmax for "CC(C)(C)[C@H](NC(=O)COCC#CC#CCOc1ccc(N2C(=S)N(c3ccc(C#N)c(Cl)c3)C(=O)C2(C)C)cc1F)C(=O)N1C[C@H](O)C[C@H]1C(=O)NCc1ccc(-c2cnco2)cc1" .
# output 51 to 70%

# input Param item: "Cc1cc(-c2ccc(N3C(=S)N(c4ccc(C#N)c(C(F)(F)F)c4)C(=O)C3(C)C)cc2)ccc1OCCCCOCC(=O)N[C@H](C(=O)N1C[C@H](O)C[C@H]1C(=O)NCc1ccc(-c2scnc2C)cc1)C(C)(C)C"
# output > 71%

* * *

- ASSAYED_SYSTEM: Androgen Receptor (Homo sapiens, UniProt P10275)
- Construct: endogenous in cells; host or cells: VCaP cells
- Sequence (P10275 1-920): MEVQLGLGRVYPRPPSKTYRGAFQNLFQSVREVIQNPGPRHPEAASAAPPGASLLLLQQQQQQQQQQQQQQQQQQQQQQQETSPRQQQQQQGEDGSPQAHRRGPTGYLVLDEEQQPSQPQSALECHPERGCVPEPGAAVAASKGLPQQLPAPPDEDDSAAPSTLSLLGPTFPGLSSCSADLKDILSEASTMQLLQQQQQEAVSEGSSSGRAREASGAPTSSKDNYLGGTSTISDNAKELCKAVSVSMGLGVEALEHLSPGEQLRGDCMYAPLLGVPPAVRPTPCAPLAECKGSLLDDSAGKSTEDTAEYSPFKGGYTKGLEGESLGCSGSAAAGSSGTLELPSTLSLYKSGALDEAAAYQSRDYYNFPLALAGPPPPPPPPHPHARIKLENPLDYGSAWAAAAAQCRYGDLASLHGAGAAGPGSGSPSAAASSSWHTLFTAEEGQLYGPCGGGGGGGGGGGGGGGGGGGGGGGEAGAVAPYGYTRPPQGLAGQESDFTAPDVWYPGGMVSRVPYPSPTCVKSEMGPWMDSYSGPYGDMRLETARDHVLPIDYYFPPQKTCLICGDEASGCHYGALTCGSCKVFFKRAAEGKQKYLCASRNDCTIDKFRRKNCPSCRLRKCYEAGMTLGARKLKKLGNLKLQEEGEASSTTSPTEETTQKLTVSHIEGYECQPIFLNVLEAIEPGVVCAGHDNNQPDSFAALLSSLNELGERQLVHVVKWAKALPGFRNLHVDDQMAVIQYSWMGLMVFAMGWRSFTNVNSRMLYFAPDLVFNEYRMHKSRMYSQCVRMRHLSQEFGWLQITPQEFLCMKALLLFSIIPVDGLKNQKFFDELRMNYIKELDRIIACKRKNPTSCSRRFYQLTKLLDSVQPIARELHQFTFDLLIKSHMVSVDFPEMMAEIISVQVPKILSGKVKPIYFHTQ
- TEST_DETAILS: Androgen Receptor ELISA assay (PathScan AR ELISA) in VCaP cells: AR degradation, Dmax and DC50
- Assay type: cell-based
- RECORDED_CONDITIONS: VCaP cells; Table 36; read-out: VCaP DC50
Parameter DC50: see the listing below.

# COMPOUND, ASSAYED_SYSTEM, DC50
data = [
    ("C#CCCC(=O)OC(CCOCCCOCC(=O)N[C@H](C(=O)N1C[C@H](O)C[C@H]1C(=O)N[C@@H](C)c1ccc(-c2scnc2C)cc1)C(C)(C)C)CCOc1ccc(N2C(=S)N(c3ccc(C#N)c(C(F)(F)F)c3)C(=O)C2(C)C)cc1 (some centres unmarked)", "Androgen Receptor (Homo sapiens, UniProt P10275)", "> 501 nM"),
]

# input Name the recorded DC50 for "Cc1ncsc1-c1ccc([C@H](C)NC(=O)[C@@H]2C[C@@H](O)CN2C(=O)[C@H](C(C)C)N(C)C(=O)CN2CCN(CCOc3ccc(C(=O)N[C@H]4C(C)(C)[C@H](Oc5ccc(C#N)c(Cl)c5)C4(C)C)cc3)CC2)cc1" .
# output > 501 nM

Every entry's value here was drawn from patent US11427548B2.
